Target Or System: UniProt:P51531
Sequence (P51531 whole entry): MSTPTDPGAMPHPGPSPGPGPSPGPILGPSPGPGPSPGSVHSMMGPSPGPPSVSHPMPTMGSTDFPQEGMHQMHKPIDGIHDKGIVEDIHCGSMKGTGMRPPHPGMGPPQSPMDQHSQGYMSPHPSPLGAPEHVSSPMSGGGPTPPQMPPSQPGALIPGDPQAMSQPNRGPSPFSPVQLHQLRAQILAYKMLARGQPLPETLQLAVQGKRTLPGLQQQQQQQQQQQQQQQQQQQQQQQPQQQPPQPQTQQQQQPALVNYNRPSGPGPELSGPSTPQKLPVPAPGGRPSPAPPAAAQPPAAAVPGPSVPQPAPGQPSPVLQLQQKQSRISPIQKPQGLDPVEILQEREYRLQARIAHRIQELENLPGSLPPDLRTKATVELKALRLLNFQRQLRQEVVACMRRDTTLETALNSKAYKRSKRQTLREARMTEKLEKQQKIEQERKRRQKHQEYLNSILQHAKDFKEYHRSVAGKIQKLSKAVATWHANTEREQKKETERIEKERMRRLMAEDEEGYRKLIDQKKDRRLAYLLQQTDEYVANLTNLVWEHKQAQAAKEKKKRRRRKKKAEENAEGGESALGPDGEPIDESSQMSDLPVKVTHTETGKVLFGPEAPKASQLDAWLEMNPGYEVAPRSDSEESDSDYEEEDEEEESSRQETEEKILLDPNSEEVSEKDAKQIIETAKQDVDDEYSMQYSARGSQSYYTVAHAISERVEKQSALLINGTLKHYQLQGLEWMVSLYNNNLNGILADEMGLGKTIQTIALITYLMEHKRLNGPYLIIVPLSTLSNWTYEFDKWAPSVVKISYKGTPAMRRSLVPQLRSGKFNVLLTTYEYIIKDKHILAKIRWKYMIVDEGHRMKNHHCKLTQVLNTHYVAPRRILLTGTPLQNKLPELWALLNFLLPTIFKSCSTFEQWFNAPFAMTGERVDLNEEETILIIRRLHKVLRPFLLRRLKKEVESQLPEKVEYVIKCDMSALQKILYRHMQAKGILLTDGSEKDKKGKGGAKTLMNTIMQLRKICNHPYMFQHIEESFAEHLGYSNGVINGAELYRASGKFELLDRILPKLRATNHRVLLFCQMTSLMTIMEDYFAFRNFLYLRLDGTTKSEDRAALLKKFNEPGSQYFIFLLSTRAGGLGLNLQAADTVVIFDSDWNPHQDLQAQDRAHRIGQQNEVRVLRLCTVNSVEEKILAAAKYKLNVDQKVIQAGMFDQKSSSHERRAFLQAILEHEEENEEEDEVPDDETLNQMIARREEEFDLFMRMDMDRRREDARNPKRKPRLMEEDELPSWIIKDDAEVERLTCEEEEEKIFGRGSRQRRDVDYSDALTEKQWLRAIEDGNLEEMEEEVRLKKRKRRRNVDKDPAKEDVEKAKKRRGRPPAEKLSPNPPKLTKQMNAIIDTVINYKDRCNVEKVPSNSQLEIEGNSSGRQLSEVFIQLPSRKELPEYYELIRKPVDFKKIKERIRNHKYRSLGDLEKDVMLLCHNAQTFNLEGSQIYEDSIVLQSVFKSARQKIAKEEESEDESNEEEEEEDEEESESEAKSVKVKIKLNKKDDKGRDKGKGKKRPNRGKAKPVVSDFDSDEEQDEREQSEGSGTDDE
Protocol Notes: SMARCA2 Western blot degradation in MV4-11 cells
Format: cell-based
Set-up: SMARCA2/SMARCA4 protein degradation selectivity in MV4-11 cells; endogenous in cells; host or cells: MV4-11
Test Conditions: MV4-11 cells, 24 h; read-out: SMARCA2 MSD MV411 degradation 24 h: Mean external-Abs DC50
A collection of molecules and their measured DC50

| Molecule | DC50 |
| --- | --- |
| C#Cc1ccc(CNC(=O)[C@@H]2C[C@@H](O)CN2C(=O)[C@@H](NC(=O)[C@H]2CC3(C2)C[C@H](c2cnc(N4CCC(N5CCN6c7cc(-c8ccccc8O)nnc7NC[C@H]6C5)CC4)nc2)C3)C(C)(C)C)cc1 (single isomer, unassigned) [I-301] | 1 to 10 nM |
| Cc1ncsc1-c1ccc(CNC(=O)[C@@H]2C[C@@H](O)CN2C(=O)[C@@H](NC(=O)N2CC3(CC(N4CCN(c5ccnc(N6CCN7c8cc(-c9ccccc9O)nnc8NC[C@H]7C6)n5)CC4)C3)C2)C(C)(C)C)cc1 | < 1 nM |
| C#Cc1ccc(CNC(=O)[C@@H]2C[C@@H](O)CN2C(=O)[C@@H](NC(=O)[C@H]2CCC3(CC2)C[C@H](N2CCN(c4cnc(N5CCN6c7cc(-c8ccccc8O)nnc7NC[C@H]6C5)nc4)CC2)C3)C(C)(C)CCO)c(Cl)c1 (single isomer, unassigned) [I-312] | 10 to 100 nM |
| C#Cc1ccc(CNC(=O)[C@@H]2C[C@@H](O)CN2C(=O)[C@@H](NC(=O)N2CC3(CC(N4CCC(c5cnc(N6CCN7c8cc(-c9ccccc9O)nnc8NC[C@H]7C6)nc5)CC4)C3)C2)C(C)(C)C)cc1 | < 1 nM |
